# experimental_system: plasma protein
# assay_info: plasma ultrafiltration (Centrifree), LC-MS/MS; peptide 0.1 uM
Positions of bridges follow the written chain, without caps; N, C: chain ends. Non-standard residues stand in square brackets, D forms with d. dPhe(4-Br) = N[C@H](Cc1ccc(Br)cc1)C(=O)O; Cit = NC(=O)NCCC[C@H](N)C(=O)O; Nle = CCCC[C@H](N)C(=O)O
measure: Protein Binding (%)
One number for each entry, in %.

As a guide, the following entries are already answered.
Ac-RC[dA][Cit][dF]RWC-NH2 (disulfide 2-8) [CTX-1285] | 45
Ac-R[Nle]CH[dF]RWC-NH2 (disulfide 3-8; SMILES CCCC[C@H](NC(=O)[C@H](CCCNC(=N)N)NC(C)=O)C(=O)N[C@H]1CSSC[C@@H](C(N)=O)NC(=O)[C@H](Cc2c[nH]c3ccccc23)NC(=O)[C@H](CCCNC(=N)N)NC(=O)[C@@H](Cc2ccccc2)NC(=O)[C@H](Cc2c[nH]cn2)NC1=O) [CTX-1227] | 50
Ac-RCAR[dF]R[dW]C-NH2 (disulfide 2-8) [CTX-1268] | 52

// moving on: another record for Protein Binding (%)
For the binder Ac-RC[dA]R[dPhe(4-Br)]RFC-NH2 (disulfide 2-8; SMILES CC(=O)N[C@@H](CCCNC(=N)N)C(=O)N[C@H]1CSSC[C@@H](C(N)=O)NC(=O)[C@H](Cc2ccccc2)NC(=O)[C@H](CCCNC(=N)N)NC(=O)[C@@H](Cc2ccc(Br)cc2)NC(=O)[C@H](CCCNC(=N)N)NC(=O)[C@@H](C)NC1=O) [CTX-1258] , give its reported Protein Binding (%).
47

Value source: patent US20240391954A1
